Tested on: SARS-CoV-2
TEST_METHOD_NOTES: microbe, parasite or virus in culture
Type: functional, organism-based, Chlorocebus sabaeus, Vero C1008
CONDITION_CONTEXT: Severe acute respiratory syndrome coronavirus 2, Vero C1008, 48 h
Where a name gives a salt, the structure may show the parent alone.
MEASURED_METRIC: IC50

compound=CCN(CC)c1ccc2cc(-c3nc4ccccc4[nH]3)c(=O)oc2c1 measured_metric=IC50 test_result="0.36 µM"
compound=CC(C)n1cnc2c(NCCc3ccc(O)cc3)nc(-c3csc4ccccc34)nc21 measured_metric=IC50 test_result="> 33 µM"
compound="O[C@@H](COc1cccc2ncccc12)CN1CCN([C@@H]2c3ccccc3[C@@H]3[C@H](c4ccccc42)C3(F)F)CC1 [ZOSUQUIDAR TRIHYDROCHLORIDE]" measured_metric=IC50 test_result="8.4 µM"
compound=O=C(O)c1ccc(N2C(=O)/C(=C/c3ccc(-c4ccc([N+](=O)[O-])cc4)o3)C=C2c2ccccc2)cc1 measured_metric=IC50 test_result="> 33 µM"
compound=Cc1cc(O)c2c(=O)c3c(O)cc(O)c4c5c(O)cc(O)c6c(=O)c7c(O)cc(C)c8c1c2c(c34)c(c78)c65 measured_metric=IC50 test_result="0.25 µM"
compound=COc1cc(/C=C2\SC(=O)NC2=O)ccc1Oc1ccc(C#N)cc1C(F)(F)F measured_metric=IC50 test_result="> 33 µM"
compound=Clc1ccccc1CNC[C@H]1CC[C@H](CNCc2ccccc2Cl)CC1 measured_metric=IC50 test_result="22.7 µM"
compound=Cc1cc([N+](=O)[O-])ccc1NS(=O)(=O)c1cc(Cl)ccc1Cl measured_metric=IC50 test_result="> 33 µM"

====

Reported log10 CC50 at 48 h values for the following molecules.
TEST_METHOD_NOTES: in vitro
CONDITION_CONTEXT: chlorocebus sabaeus, VERO-E6 cells (Vero C1008), uninfected, CC50
MEASURED_METRIC: log10 CC50 at 48 h (log10 of the value in nM)

molecule="Cc1nc(N)nc(N)c1-c1ccc(Cl)c(Cl)c1 [METOPRINE]" test_result=2.08
molecule="CC(C)(C)NCc1ccc(Nc2ccnc3cc(Cl)ccc23)cc1O [GSK-369796]" test_result=4.09
molecule=c1cncc(CN2CCC(n3ncc4c(N5CCOCC5)nc(-c5ccc6[nH]ccc6c5)nc43)CC2)c1 test_result=3.98
molecule=OCCCNc1cc(-c2ccnc(Nc3cccc(Cl)c3)n2)ccn1 test_result=3.91
molecule=Cn1nc(C(C)(C)C)cc1C(=O)N[C@@H](Cc1cccc(Cl)c1)C(=O)NCC#N test_result=1.48
molecule=CC(C)[C@H]1c2ccc(F)cc2CC[C@@]1(CCN(C)CCCc1nc2ccccc2[nH]1)OC(=O)C1CC1 test_result=3.91
molecule=Cc1cnc(Nc2ccc(F)cc2Cl)nc1-c1c[nH]c(C(=O)N[C@H](CO)c2cccc(Cl)c2)c1 test_result=3.28
molecule=O=S(=O)(NCC1CC1)c1ccc(Nc2nccc(N3CCCc4cc(O)ccc43)n2)cc1 test_result=2.87
molecule="CC[C@H](CC#N)OC(=O)N[C@@H](C)c1cccc(NC(=O)Nc2ccc(-c3cnco3)c(OC)c2)c1 [AVN-944]" test_result=2.88
molecule="O=C(Nc1ccc(Cl)cc1)Nc1ccc(Cl)c(Cl)c1 [TRICLOCARBAN]" test_result=3.49
molecule="C[C@H]1CCC/C=C/[C@@H]2C[C@H](O)C[C@H]2[C@H](O)/C=C/C(=O)O1 [BREFELDIN A]" test_result=1.78
molecule=Nc1ncc(-c2ccnc(Nc3ccncc3)n2)c(CC2CC2)n1 test_result=3.32
molecule="CC[n+]1c(-c2ccccc2)c2cc(N)ccc2c2ccc(N)cc21 [HOMIDIUM]" test_result=3.31
molecule=O=[N+]([O-])c1ccc(NN=Cc2sc(N3CCOCC3)nc2-c2ccccc2)c(S(=O)(=O)Nc2ccccc2Cl)c1 test_result=2.63
